Property: melting point; scope: individual compounds
QUANTITY KIND: melting point

> print(dat)
                                   compound  readout.value
1   CC(C)(C)OC(=O)N1CCCN(c2ncnc3ccccc23)CC1    55 to 59 °C
2     COc1ccc(-c2cc(SC)sc2-c2ccc(OC)cc2)cc1  106 to 108 °C
3  CON(C)C(=O)C(C)NC(=O)OC(C)(C)C (centres undefined)  150 to 151 °C
4  CCOC(=O)CCCn1c(Nc2c(C)noc2C)nc2c(Cl)ccc(C(CC)CC)c21  135 to 138 °C

====

Property: melting point; scope: individual molecules
QUANTITY KIND: melting point

> print(dat)
                                    molecule  readout.value
 1  CC(C)(OCc1nn(Cc2ccccc2)c2ccc(Br)cc12)C(=O)O  168 to 170 °C
 2  O=C(CCl)Nc1ccc2c(c1NC(=O)CCl)C(=O)c1ccccc1C2=O  254 to 255 °C
 3  CC(C)(C)CC(NC(=O)c1ccc(Cl)cc1)NC(=NC#N)Nc1cccnc1 (stereo not given)  181 to 183 °C
 4         N#Cc1cc(N)ccc1CN1CCC(N2CCOCC2)CC1  162 to 165 °C
 5  Cc1c(CNCC2CCOCC2)[nH]c2c(C)c(NC(=O)c3ccc(OC[C@@H]4CCCO4)cc3)ccc12  184 to 185 °C
 6  COc1ccc(-c2c([N+](=O)[O-])c3ccc(OC)cc3c(=O)n2CC#N)cc1  194 to 196 °C
 7                          Cc1cc(C)c(N)cc1N  170 to 172 °C
 8      CCOc1cc(CO)ccc1OCc1nc(-c2ccccc2)oc1C  130 to 131 °C
 9  CNC(=O)C(O)C1=CC2(CCCC2)c2ccccc21 (stereo not given)  136 to 138 °C
10                  Brc1cccc(-c2csc(Br)n2)c1    88 to 90 °C
11  O=C1Nc2ccccc2C2=NC(CBr)CN12 (stereo not given)  213 to 214 °C
12          C1CNC2CNCC2C1 (stereo not given)    65 to 67 °C
13                  CC(C)(C)CCC(=S)SC(C)(C)C    98 to 99 °C
14  Cc1[nH]c(=O)c2c(ccc3nc(Nc4c(Cl)cccc4Cl)n(C)c32)c1CC(=O)N1CCOCC1       > 300 °C
15               CCOC(=O)CC(=O)Nc1ccc(F)cc1F    66 to 68 °C
